System: Pseudomonas aeruginosa
Experiment: Antibacterial activity against Pseudomonas aeruginosa NBRC13275 assessed as bacterial cell density at 500 uM relative to control
Assay type: functional
Each entry below lists one item and its recorded Activity value.
reportedEndpoint: Activity (%)

smilesStructure | reportedEndpoint | recordedValue
CC(C)C(=O)N1CCN(C(=O)Cn2cnc3c(=O)[nH]c(N)nc32)CCN(C(=O)C(C)C)CCN(C(=O)Cn2cnc3c(=O)[nH]c(N)nc32)CC1 | Activity | 313
CCC(=O)N1CCN(C(=O)Cn2cnc3c(=O)[nH]c(N)nc32)CCN(C(=O)CC)CCN(C(=O)Cn2cnc3c(=O)[nH]c(N)nc32)CC1 | Activity | 118
Nc1nc2c(ncn2CC(=O)N2CCN(C(=O)OCc3ccccc3)CCN(C(=O)Cn3cnc4c(=O)[nH]c(N)nc43)CCN(C(=O)OCc3ccccc3)CC2)c(=O)[nH]1 | Activity | 105
CCC(=O)N(CCNC(=O)Cn1cnc2c(=O)[nH]c(N)nc21)CCNC(=O)Cn1cnc2c(=O)[nH]c(N)nc21 | Activity | 98
Nc1nc2c(ncn2CC(=O)NCCNCCNC(=O)Cn2cnc3c(=O)[nH]c(N)nc32)c(=O)[nH]1 | Activity | 112
Nc1nc2c(ncn2[C@@H]2O[C@@H]3COP(=O)(O)O[C@H]4[C@@H](O)[C@H](n5cnc6c(=O)[nH]c(N)nc65)O[C@@H]4COP(=O)(O)O[C@H]3[C@H]2O)c(=O)[nH]1 | Activity | 78

====

Tested on: Staphylococcus aureus
Experiment: Antibacterial activity against Staphylococcus aureus NBRC13276 assessed as bacterial cell density at 500 uM relative to control
Type: functional
Each entry below lists one item and its recorded Activity value.

smilesStructure | targetOrSystem | uom | Activity
CC(C)C(=O)N1CCN(C(=O)Cn2cnc3c(=O)[nH]c(N)nc32)CCN(C(=O)C(C)C)CCN(C(=O)Cn2cnc3c(=O)[nH]c(N)nc32)CC1 | Staphylococcus aureus | % | 267
CCC(=O)N(CCNC(=O)Cn1cnc2c(=O)[nH]c(N)nc21)CCNC(=O)Cn1cnc2c(=O)[nH]c(N)nc21 | Staphylococcus aureus | % | 92
CC(=O)N1CCN(C(=O)Cn2cnc3c(=O)[nH]c(N)nc32)CCN(C(C)=O)CCN(C(=O)Cn2cnc3c(=O)[nH]c(N)nc32)CC1 | Staphylococcus aureus | % | 150
CCC(=O)N1CCN(C(=O)Cn2cnc3c(=O)[nH]c(N)nc32)CCN(C(=O)CC)CCN(C(=O)Cn2cnc3c(=O)[nH]c(N)nc32)CC1 | Staphylococcus aureus | % | 124
Nc1nc2c(ncn2CC(=O)N2CCNCCN(C(=O)Cn3cnc4c(=O)[nH]c(N)nc43)CCNCC2)c(=O)[nH]1 | Staphylococcus aureus | % | 108
CC(C)C(=O)N(CCNC(=O)Cn1cnc2c(=O)[nH]c(N)nc21)CCNC(=O)Cn1cnc2c(=O)[nH]c(N)nc21 | Staphylococcus aureus | % | 92
NCCN(CCNC(=O)Cn1cnc2c(=O)[nH]c(N)nc21)C(=O)Cn1cnc2c(=O)[nH]c(N)nc21 | Staphylococcus aureus | % | 124
Nc1nc2c(ncn2CC(=O)N2CCN(C(=O)OCc3ccccc3)CCN(C(=O)Cn3cnc4c(=O)[nH]c(N)nc43)CCN(C(=O)OCc3ccccc3)CC2)c(=O)[nH]1 | Staphylococcus aureus | % | 111
